# Tested on: LOX IMVI melanoma
# assay_remarks: NCI tumour cell line growth inhibition, 48 h
Listed molecules paired with reported TGI

# annotated cases, reported TGI shown
molecule	TGI
COc1ccc(OC)c(NC2=NCCO2)c1	> 100 µM
Oc1cc(O)c2c(c1)O[C@H](c1cc(O)c(O)c(O)c1)[C@@H](O)C2	37.9 µM
C/C(=N/NC(=S)Nc1cccc(Cl)c1)c1ccccn1	9.49 µM
O=C(/C=C/c1ccc(OCc2ccccc2)cc1)NCc1ccc(C(=O)NCc2ccccc2)cc1	> 100 µM
Nc1ncnc2c1sc(=S)n2-c1ccccc1	> 100 µM

Request: Quick check: TGI of O=P(O)(O)OCC1OC(n2cnc3c(NCc4ccco4)ncnc32)C(O)C1O (configuration not stated) ?
Response: 1.47 µM

Request: Same again, this time with COc1ccc(C(C#N)=C2C=CC(=NO)C=C2)cc1
Response: 4.5 µM

Request: Same again, this time with N/C(=N\S(=O)(=O)c1ccc(-c2ccccn2)s1)Nc1ccc(Cl)cc1
Response: 33.5 µM

Request: Same again, this time with COc1cccc(Sc2ccc([N+](=O)[O-])c3no[n+]([O-])c23)c1
Response: 11.5 µM
